- System: MCF7
- ASSAY_REMARKS: HRG-induced Akt activation (dPAkt = log2 pAkt/Akt HRG-stimulated minus log2 pAkt/Akt basal) (log2 ratio difference); higher = stronger HRG-induced Akt(T308) phosphorylation
- CONDITION_DESCRIPTION: miRNA mimic concentration 10 nM; time after transfection 72 h; heregulin 10 ng/ml; stimulation time 1 h
ENDPOINT_LABEL: HRG-induced Akt activation (log2)
Just the number.

Some sequences with known HRG-induced Akt activation (log2) results, for comparison:
{"INPUT_SEQUENCE": "CUGCCAAUUCCAUAGGUCACAG", "ENDPOINT_LABEL": "HRG-induced Akt activation (log2)", "OBSERVED_VALUE": 1.47}
{"INPUT_SEQUENCE": "CUCCAGAGGGAUGCACUUUCU", "ENDPOINT_LABEL": "HRG-induced Akt activation (log2)", "OBSERVED_VALUE": 1.83}
{"INPUT_SEQUENCE": "UGAUUGGUACGUCUGUGGGUAG", "ENDPOINT_LABEL": "HRG-induced Akt activation (log2)", "OBSERVED_VALUE": 2.35}
{"INPUT_SEQUENCE": "AAACCUGUGUUGUUCAAGAGUC", "ENDPOINT_LABEL": "HRG-induced Akt activation (log2)", "OBSERVED_VALUE": 0.883}
{"INPUT_SEQUENCE": "UACUUGGAAAGGCAUCAGUUG", "ENDPOINT_LABEL": "HRG-induced Akt activation (log2)", "OBSERVED_VALUE": 1.28}
{"INPUT_SEQUENCE": "CUCUAGAGGGAAGCACUUUCUG", "ENDPOINT_LABEL": "HRG-induced Akt activation (log2)", "OBSERVED_VALUE": 2.15}

Note HRG-induced Akt activation (log2) for the sequence shown: `UUGCUCACUGUUCUUCCCUAG`
0.869

Note HRG-induced Akt activation (log2) for the sequence shown: `AAGUAGUUGGUUUGUAUGAGAUGGUU`
1.42

Note HRG-induced Akt activation (log2) for the sequence shown: `UACUCAAAAAGCUGUCAGUCA`
1.02

Note HRG-induced Akt activation (log2) for the sequence shown: `GUGUCUGCUUCCUGUGGGA`
2.6

Note HRG-induced Akt activation (log2) for the sequence shown: `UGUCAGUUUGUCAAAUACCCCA`
1.28

Note HRG-induced Akt activation (log2) for the sequence shown: `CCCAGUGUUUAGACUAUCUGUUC`
1.58

Note HRG-induced Akt activation (log2) for the sequence shown: `UAUGUGCCUUUGGACUACAUCG`
1.56

Note HRG-induced Akt activation (log2) for the sequence shown: `AAGAUGUGGAAAAAUUGGAAUC`
1.68

Note HRG-induced Akt activation (log2) for the sequence shown: `CCUGUUGAAGUGUAAUCCCCA`
1.21

* * *

HRG-induced Akt activation (log2) reference
- Tested on: MCF7
- ASSAY_REMARKS: HRG-induced Akt activation (dPAkt = log2 pAkt/Akt HRG-stimulated minus log2 pAkt/Akt basal) (log2 ratio difference); higher = stronger HRG-induced Akt(T308) phosphorylation
- CONDITION_DESCRIPTION: miRNA mimic concentration 10 nM; time after transfection 72 h; heregulin 10 ng/ml; stimulation time 1 h

Some sequences with known HRG-induced Akt activation (log2) results, for comparison:
{"INPUT_SEQUENCE": "CUUCCUCGUCUGUCUGCCCC", "OBSERVED_VALUE": 1.02}
{"INPUT_SEQUENCE": "GAAUGUUGCUCGGUGAACCCCU", "OBSERVED_VALUE": 1.33}
{"INPUT_SEQUENCE": "UGGAGAGAAAGGCAGUUCCUGA", "OBSERVED_VALUE": 0.965}
{"INPUT_SEQUENCE": "UCUCCCAACCCUUGUACCAGUG", "OBSERVED_VALUE": 1.51}
{"INPUT_SEQUENCE": "GGAUUCCUGGAAAUACUGUUCU", "OBSERVED_VALUE": 1.2}

Note HRG-induced Akt activation (log2) for the sequence shown: `UCACUCCUCUCCUCCCGUCUU`
1.4

Note HRG-induced Akt activation (log2) for the sequence shown: `ACUGCAUUAUGAGCACUUAAAG`
1.66

Note HRG-induced Akt activation (log2) for the sequence shown: `UUCCCUUUGUCAUCCUAUGCCU`
0.793

Note HRG-induced Akt activation (log2) for the sequence shown: `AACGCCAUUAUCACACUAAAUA`
1.14

Note HRG-induced Akt activation (log2) for the sequence shown: `GUUGUGUCAGUUUAUCAAAC`
1.54

Note HRG-induced Akt activation (log2) for the sequence shown: `UAGAGUUACACCCUGGGAGUUA`
1.66

Note HRG-induced Akt activation (log2) for the sequence shown: `UUUUCAACUCUAAUGGGAGAGA`
1.48
